- targetSystem: T1, TNFR1 (Homo sapiens, UniProt P19438)
- T1 chain: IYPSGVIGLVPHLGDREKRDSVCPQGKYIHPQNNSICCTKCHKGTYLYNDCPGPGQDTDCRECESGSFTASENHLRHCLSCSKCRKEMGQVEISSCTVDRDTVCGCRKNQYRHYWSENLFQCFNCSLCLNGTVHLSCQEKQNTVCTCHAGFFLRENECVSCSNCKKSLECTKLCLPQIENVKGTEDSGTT
- test: yeast display SC50
valueKind: apparent Kd (screen) (nM)
Give just the numeric value; nM need not be written.

Worked examples, 3 binders total:
L27G (designed binder) MTLQELLREEALRRAEAEAFRYALELGAEKFPEQKEYLLDLAEEIESQIRSLSGVDVEDVRKFLDKEWAWVKELLAEHPAELAEVEAARAARLAELRAEVEAKVAA | 0.539
L38T (designed binder) MTLQELLREEALRRAEAEAFRYALELLAEKFPEQKEYTLDLAEEIESQIRSLSGVDVEDVRKFLDKEWAWVKELLAEHPAELAEVEAARAARLAELRAEVEAKVAA | 26.9
V57M (designed binder) MTLQELLREEALRRAEAEAFRYALELLAEKFPEQKEYLLDLAEEIESQIRSLSGVDMEDVRKFLDKEWAWVKELLAEHPAELAEVEAARAARLAELRAEVEAKVAA | 2.48

Lookup: Return reported apparent Kd (screen); argument: V60N (designed binder) MTLQELLREEALRRAEAEAFRYALELLAEKFPEQKEYLLDLAEEIESQIRSLSGVDVEDNRKFLDKEWAWVKELLAEHPAELAEVEAARAARLAELRAEVEAKVAA
Found: 0.956

Lookup: Likewise for L38S (designed binder) MTLQELLREEALRRAEAEAFRYALELLAEKFPEQKEYSLDLAEEIESQIRSLSGVDVEDVRKFLDKEWAWVKELLAEHPAELAEVEAARAARLAELRAEVEAKVAA ?
Found: 11.4

Lookup: Likewise for E101I (designed binder) MTLQELLREEALRRAEAEAFRYALELLAEKFPEQKEYLLDLAEEIESQIRSLSGVDVEDVRKFLDKEWAWVKELLAEHPAELAEVEAARAARLAELRAEVIAKVAA ?
Found: 0.49

Lookup: Likewise for A106S (designed binder) MTLQELLREEALRRAEAEAFRYALELLAEKFPEQKEYLLDLAEEIESQIRSLSGVDVEDVRKFLDKEWAWVKELLAEHPAELAEVEAARAARLAELRAEVEAKVAS ?
Found: 0.653

Lookup: Likewise for R8D (designed binder) MTLQELLDEEALRRAEAEAFRYALELLAEKFPEQKEYLLDLAEEIESQIRSLSGVDVEDVRKFLDKEWAWVKELLAEHPAELAEVEAARAARLAELRAEVEAKVAA ?
Found: 0.593
